- study.target: Estrogen receptor (Homo sapiens)
- Sequence (P03372 whole entry): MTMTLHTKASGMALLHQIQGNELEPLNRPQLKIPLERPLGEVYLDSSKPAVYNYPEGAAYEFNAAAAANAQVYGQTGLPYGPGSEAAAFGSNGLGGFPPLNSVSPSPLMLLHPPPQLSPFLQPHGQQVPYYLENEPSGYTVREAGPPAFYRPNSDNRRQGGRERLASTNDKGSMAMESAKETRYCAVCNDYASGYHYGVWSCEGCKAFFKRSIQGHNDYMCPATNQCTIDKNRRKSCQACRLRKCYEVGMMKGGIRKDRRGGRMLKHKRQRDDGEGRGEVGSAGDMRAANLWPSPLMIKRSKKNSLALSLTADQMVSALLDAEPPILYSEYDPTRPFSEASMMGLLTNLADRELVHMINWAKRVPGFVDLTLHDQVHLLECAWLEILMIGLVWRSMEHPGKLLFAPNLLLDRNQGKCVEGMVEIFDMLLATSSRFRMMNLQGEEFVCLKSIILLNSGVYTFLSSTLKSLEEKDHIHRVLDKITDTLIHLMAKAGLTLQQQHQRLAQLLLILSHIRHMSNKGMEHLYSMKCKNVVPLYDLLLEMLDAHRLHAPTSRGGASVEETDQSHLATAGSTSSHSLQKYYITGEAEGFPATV
- experimental.details: Inhibition of estradiol-induced coactivator peptide SRC1 binding to estrogen receptor alpha expressed in human HEC1 cells after 24 hrs by luciferase based mammalian two-hybrid assay
- Assay type: cell-based, HEC-1
pIC50: −log10 of the molar value.
observation.type: pIC50

I: CC(/C=N/NC(=N)N)=C(/Cl)c1ccccc1
II: N=C(N)N/N=C/C1=C(Oc2ccccc2)c2ccccc2CC1
III: N=C(N)N/N=C/c1cccc2ccccc12
Asked: Sort key: pIC50. Order: high to low. Scope: items listed above. Kindly provide the labels arranged according to the requested ordering.
Given back: I, II, III

1: COc1ccc2c(c1)CCC(/C=N/NC(=N)N)=C2Cl
2: N=C(N)N/N=C/C1=C(Cl)c2ccccc2C1
3: N=C(N)N/N=C/C1=C(Cl)c2ccccc2CCC1
Asked: List by increasing pIC50. Kindly provide the labels arranged according to the requested ordering.
Given back: 2, 3, 1
(2: 5.17, 3: 5.40, 1: 5.68)

A: Cc1cc(C)c2c(c1)C(Cl)=C(/C=N/NC(=N)N)CC2
B: N=C(N)N/N=C/C1=C(Br)c2ccccc2CC1
Asked: When the recorded pIC50 values are compared, which is smaller: that of A or that of B ? Please indicate the selected item by its label.
Given back: B
(B: 5.31, A: 5.60)

P: CC1CC(/C=N/NC(=N)N)=C(Cl)c2ccccc21 (centres undefined)
Q: N=C(N)N/N=C/C=C(\Cl)c1ccccc1
Asked: Please state the entry with greater pIC50 among P and Q . Please indicate the selected item by its label.
Given back: Q
(Q: 5.34, P: 5.03)

###

- study.target: Estrogen receptor (Homo sapiens, UniProt P03372)
- Sequence (P03372 whole entry): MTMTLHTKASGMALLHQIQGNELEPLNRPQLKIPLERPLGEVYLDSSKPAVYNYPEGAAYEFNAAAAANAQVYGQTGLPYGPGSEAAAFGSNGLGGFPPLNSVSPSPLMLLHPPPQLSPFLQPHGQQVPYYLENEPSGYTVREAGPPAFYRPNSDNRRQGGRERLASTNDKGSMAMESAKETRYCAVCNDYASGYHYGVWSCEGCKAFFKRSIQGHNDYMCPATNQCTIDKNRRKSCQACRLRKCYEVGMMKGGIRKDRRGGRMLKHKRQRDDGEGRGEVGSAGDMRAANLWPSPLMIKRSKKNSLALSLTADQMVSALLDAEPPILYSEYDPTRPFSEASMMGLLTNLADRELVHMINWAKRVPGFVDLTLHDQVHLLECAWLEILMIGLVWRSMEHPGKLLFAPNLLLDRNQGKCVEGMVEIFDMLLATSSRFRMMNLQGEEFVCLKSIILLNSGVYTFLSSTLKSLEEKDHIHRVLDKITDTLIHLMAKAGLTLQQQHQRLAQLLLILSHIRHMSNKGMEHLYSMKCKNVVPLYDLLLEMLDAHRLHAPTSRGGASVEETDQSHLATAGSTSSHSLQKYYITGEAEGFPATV
- experimental.details: Inhibition of estradiol-induced coactivator peptide SRC1 binding to estrogen receptor alpha expressed in human HEC1 cells after 24 hrs by luciferase based mammalian two-hybrid assay
- Assay type: cell-based, HEC-1
Catalogue of compounds with associated IC50
Number only, in µM; omit the unit.

N=C(N)N/N=C/c1ccc2ccccc2c1 | 11.3

With those in mind, consider the next compound.
Briefly, IC50 measured for N=C(N)N/N=C/C1=C(Cl)c2ccccc2CC1 : 3.6
